System: RPMI-8226
Assay: NCI tumour cell line growth inhibition, 48 h
The source made the active and inactive calls. Rule as the data show it: active = GI50 up to about 1.1 µM and inactive = higher.
observed_property: GI50

Dear colleague, please send me the reported GI50 for Cc1cc(C)c2c(c1)CSCc1cc(C)cc(C)c1-2 when you can.
22.9 µM (inactive)

Dear colleague, please send me the reported GI50 for COc1cc(/C=C2\N=C(C)N(n3c(-c4ccccc4)nc4ccccc4c3=O)C2=O)cc(OC)c1OC when you can.
85.3 µM (inactive)

Dear colleague, please send me the reported GI50 for COc1ccc(C2c3cc4c(cc3OC3(OC)COC(=O)C23)OCO4)c(OC)c1 (centres undefined) when you can.
3.56 µM (inactive)

Dear colleague, please send me the reported GI50 for NNc1cnn(-c2ccccc2)c(=O)c1Cl when you can.
> 100 µM (inactive)

Dear colleague, please send me the reported GI50 for O=S1(=O)OCCOS(=O)(=O)C1Br when you can.
> 100 µM (inactive)

Dear colleague, please send me the reported GI50 for CS/C(=N\S(=O)(=O)c1ccc(Cl)cc1)NCCCCN/C(=N/S(=O)(=O)c1ccc(Cl)cc1)SC when you can.
> 100 µM (inactive)

Dear colleague, please send me the reported GI50 for COc1ccc(/N=N/c2c(C)c(C#N)c(=S)n(C3OC(COC(C)=O)C(OC(C)=O)C(OC(C)=O)C3OC(C)=O)c2-c2ccccc2)cc1 (centres undefined) when you can.
5.65 µM (inactive)

Dear colleague, please send me the reported GI50 for Cc1cn(C2CC(O)C(Cn3cc(Cn4ncc(=O)[nH]c4=O)nn3)O2)c(=O)[nH]c1=O (centres undefined) when you can.
> 100 µM (inactive)

Dear colleague, please send me the reported GI50 for CN(C)C(=S)/N=c1\ssc(=S)n1Cc1ccco1 when you can.
1.48 µM (inactive)

Dear colleague, please send me the reported GI50 for Nc1cn(C2OC(CC(c3ccccc3)(c3ccccc3)c3ccccc3)C(O)C2O)c(=O)[nH]c1=O (centres undefined) when you can.
18.7 µM (inactive)

Dear colleague, please send me the reported GI50 for COc1cccc(NC(=O)/C(CS(=O)(=O)CCC(C(C)=O)C(C)=O)=N/NC(C)(C)C)c1 when you can.
> 100 µM (inactive)

Dear colleague, please send me the reported GI50 for O=C1CC(O)c2c(Br)sc(Br)c21 (centres undefined) when you can.
2.47 µM (inactive)

Dear colleague, please send me the reported GI50 for Cn1c(=O)oc2cc(C(=S)N3CCC(Cc4ccccc4)CC3)ccc21 when you can.
62.1 µM (inactive)

Dear colleague, please send me the reported GI50 for N#Cc1c(N2CCCC2)ncn(-c2ccccc2)c1=O when you can.
> 100 µM (inactive)

Dear colleague, please send me the reported GI50 for NC(=S)Nc1nnc(-c2ccc(-c3nnc(NC(N)=S)o3)cc2)o1 when you can.
> 100 µM (inactive)

Dear colleague, please send me the reported GI50 for COc1cc(Br)c(/C=N\c2cccc3cc(OC)c(OC)cc23)cc1OC when you can.
23.9 µM (inactive)

Dear colleague, please send me the reported GI50 for CC(C)[Si](OCC/C=C/C1CCC(=O)C1C(O)C1CCCCC1)(C(C)C)C(C)C (centres undefined) when you can.
13.7 µM (inactive)

Dear colleague, please send me the reported GI50 for c1csc(-c2ccsc2-c2cccs2)c1 when you can.
16.8 µM (inactive)

Dear colleague, please send me the reported GI50 for C/C(CCn1[nH]c(=O)ccc1=O)=N\OCCCc1ccccc1 when you can.
> 100 µM (inactive)

Dear colleague, please send me the reported GI50 for O=[N+]([O-])C(/C(Cl)=C(/Cl)N1CCOCC1)=C1\Nc2ccccc2O1 when you can.
> 100 µM (inactive)

Dear colleague, please send me the reported GI50 for FC(F)(F)c1ccccc1N1CCN(c2nc(-c3cccs3)nc3ccc(Br)cc23)CC1 when you can.
11.2 µM (inactive)

Dear colleague, please send me the reported GI50 for COc1ccc(CC2NC(=O)/C=C/CC(C(C)C3OC3c3ccccc3)OC(=O)C(CC(C)C)OC(=O)C(C)CNC2=O)cc1Cl (centres undefined) when you can.
3.62e-05 µM (active)

Dear colleague, please send me the reported GI50 for CCCCCCCC(=O)OC[C@H](C[As](=O)(O)O)OC(=O)CCCCCCC when you can.
5.36 µM (inactive)

Dear colleague, please send me the reported GI50 for CC(=O)Nc1ccc2c3c(cc(O)c2c1)N(C(=O)CCCCCC(=O)Nc1ccc2c4c(cc(O)c2c1)N(C(=O)OC(C)(C)C)CC4CCl)CC3CCl (centres undefined) when you can.
3.37 µM (inactive)
